- assay system: T1, hHER3 full length (human, UniProt P21860 20-1342)
- T1 construct: On transfected CHO, CHO HER2/HER3, CHO EGFR/HER3 or CHO Flp-In cells; endogenous HER3 of MCF-7 and MDA-MB468 cells in the signalling assays; also called human HER3
- assay remarks: FACS, 400 nM, competitor 18E08-biotin
attribute measured: % competition (%)
All answers are understood in %, so give the number only.

The cases that follow already have their % competition on record.
binder: 18B05 (VHH) VHH: EVQLVESGGGLVQAGGSLRLSCAASGLTFGSAPMGWYRQAPGKERELVAYISGDERIWYGDSVKGRFTISRDTTKNTLYLQMNSLKPEDTAVYYCVSDVKVRHWGQGTQVTVSS
% competition (%): 0

binder: 05A09 (VHH) VHH: EVQLVESGGGLVQAGGSLRLSCAASGFTFDDYAIGWFRQAPGKEREGVSCISSSDGSTVYADSVKGRFTISSDNAKNTVYLQMNSLKPEDTAVYYCAAERRRGYSDLCRFYYGMDYWGKGTQVTVSS
% competition (%): 78

Output % competition of 18E08 (VHH) VHH: EVQLVESGGGLVQPGGSLRLSCAASGTLFKINAMGWYRQAPGKQRELVALITSSDTTDYAESVEGRFTISRDNTWNAVYLQMNSLKPEDTAVYYCHSDHYSMGVPEKRVIMYGQGTQVTVSS
86

Output % competition of 17E08 (VHH) VHH: EVQLVESGGGLVQPGGSLRLSCSASGSIFGLNAMGWYRQTPGKERELVAGITSITRVGSTRYADSAKGRFTISGDYAKNTVYLQMNSLKPEDTGVYYCRMSIVKSGGADYWGQGTQVTVSS
0
